Values from paper PMC10397247

tested on: T1, 4H483-AA
T1 chain: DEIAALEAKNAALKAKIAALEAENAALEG
measurement protocol: two-hybrid library CCmax;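 also: natural log of median RNA to DNA barcode read ratio; higher means stronger binding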
stated conditions: mean of both orientations
endpoint label: interaction score

Use these answered entries as a reference point.
binder	interaction score
DKIAALKAKNAALEAENAALEAEIAALEG [4H2961-AA]	-1.35
DKNAALKAKIAALKAKIAALEAENAALEG [4H3939-AA]	-2.02
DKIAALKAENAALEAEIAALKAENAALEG [4H2699-AA]	0.687
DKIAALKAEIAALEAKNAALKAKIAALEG [4H2621-AA]	-1.55

P = DKNAALKAEIAALEAKIAALKAKIAALEG [4H3629-AA]
Q = DENAALKAKIAALKAKNAALKAEIAALEG [4H1913-AA]
R = DKIAALKAENAALEAKIAALEAKNAALKG [4H2728-AA]
S = DEIAALEAKNAALKAEIAALKAKNAALKG [4H464-AA]
# desc sort on interaction score across 4 binders To answer, write out the labels according to the requested order. R, S, Q, P
(R: 2.24, S: -0.618, Q: -1.02, P: -1.87)
